tested on: Cyperus iria; assay: Preemergence weed control under flooded paddy conditions, CYPIR (Rice Flatsedge); type: in vivo; settings: 0.1250 kg/ha; preemergence, flooded paddy; rated three to four weeks after treatment
Below, each entry is listed with its recorded CYPIR herbicidal rating.
# answer = number (no unit)

compound | target under test | CYPIR herbicidal rating
COCOCc1nsc2ccc(-n3c(=O)cc(C(F)(F)F)n(C)c3=O)cc12 [Example 478] | Cyperus iria | 9.0
Cn1c(C(F)(F)F)cc(=O)n(-c2ccc3snc(COC(=O)c4ccno4)c3c2)c1=O [Example 475] | Cyperus iria | 9.0

// next item, CYPIR herbicidal rating requested
Problem: State the recorded CYPIR herbicidal rating for this entry: CC(C)NS(=O)(=O)NC(=O)c1nsc2ccc(-n3c(=O)cc(C(F)(F)F)n(C)c3=O)cc12 [Example 508]
Solution: 7.0

---

Below, each entry is listed with its recorded herbicidal effect rating, ORYSAT (rice tolerance).
tested on: Oryza sativa, (L.) Tebonnet; assay: Rice tolerance to post-transplant applications under flooded paddy conditions (Example 187), ORYSAT (Rice, Tebonnet); conditions: 0.2500 kg/ha, rated three to four weeks after treatment

# example entries with known answers
compound structure string | reported value
Cc1ccc(OCC(=O)OCCCl)c(-c2nsc3ccc(-n4c(=O)cc(C(F)(F)F)n(C)c4=O)cc23)c1 | 7.0
Cn1c(C(F)(F)F)cc(=O)n(-c2ccc3snc(C(CCl)CCl)c3c2)c1=O | 8.0
C#CCNC(=O)COc1ccc(C)cc1-c1noc2ccc(-n3c(=O)cc(C(F)(F)F)n(C)c3=O)cc12 | 1.0

Problem: State the recorded herbicidal effect rating, ORYSAT (rice tolerance) for this entry: Cn1c(C(F)(F)F)cc(=O)n(-c2ccc3snc(Cl)c3c2)c1=O
Solution: 1.0

Problem: Would you mind doing COC(=O)COc1ccc(C)cc1-c1nsc2ccc(-n3c(=O)cc(C)n(C)c3=O)cc12 as well?
Solution: 0.0

Problem: Would you mind doing Cc1noc2cc(F)c(-n3c(=O)cc(C(F)(F)F)n(C)c3=O)cc12 as well?
Solution: 8.5

Problem: Would you mind doing Cn1c(C(F)(F)F)cc(=O)n(-c2ccc3snc(COCC(F)F)c3c2)c1=O as well?
Solution: 7.0

Problem: Would you mind doing CCOCCOCc1nsc2ccc(-n3c(=O)cc(C(F)(F)F)n(C)c3=O)cc12 as well?
Solution: 9.0

---

test system: Oryza sativa, (L.) Tebonnet; test: Rice tolerance to post-transplant applications under flooded paddy conditions (Example 187), ORYSAT (Rice, Tebonnet); details: 0.2500 kg/ha, rated three to four weeks after treatment
Below, each entry is listed with its recorded herbicidal effect rating, ORYSAT (rice tolerance).

Problem: State the recorded herbicidal effect rating, ORYSAT (rice tolerance) for this entry: Cc1ccc(OCC(=O)N(C(C)C)C(C)C)c(-c2nsc3ccc(-n4c(=O)cc(C(F)(F)F)n(C)c4=O)cc23)c1
Solution: 0.0

Problem: Would you mind doing C=CCOC(=O)COc1ccc(C)cc1-c1nsc2ccc(-n3c(=O)cc(C(F)(F)F)n(C)c3=O)cc12 as well?
Solution: 8.0

Problem: Would you mind doing COC(=O)COc1c(C)cc(C)cc1-c1nsc2ccc(-n3c(=O)cc(C(F)(F)F)n(C)c3=O)cc12 as well?
Solution: 9.0

Problem: Would you mind doing COC(=O)C(C)Oc1ccccc1Oc1noc2ccc(-n3c(=O)cc(C(F)(F)F)n(C)c3=O)cc12 (stereo not shown) as well?
Solution: 6.0
